Values were extracted from ChEMBL document CHEMBL1857833.

Recorded IC50 at 72 h for the following compounds
assay: DNDI: Cytotoxicity against L929 mouse fibroblasts, 72 hour.; type: toxicity, cell-based; settings: mouse, L929 mouse fibroblasts

The compound listed as COc1ccc(Oc2ncccc2/C(=N/O)NC2CCCCC2)cc1 has a reported IC50 at 72 h of > 10 µg/mL

CCCCCOc1ccc(-c2nc(CNC3[C@H]4C[C@@H]5C[C@@H](C[C@H]3C5)C4)co2)cc1 (some centres not stated) yielded IC50 at 72 h of < 3.13 µg/mL

Field IC50 at 72 h (entry CCC(C)Oc1ccc(-c2nc(CNCCCN(C)C)co2)cc1 (configuration not stated) ) reads > 10 µg/mL

The recorded IC50 at 72 h for entry C[C@@H]1[C@H]2C[C@@H](C[C@H]1NCc1coc(-c3ccc(C(C)(C)C)cc3)n1)C2(C)C equals > 50 µg/mL

Further cases:
Query O=C1CCCN1CCCNc1cc(-c2ccccc2)nc2cc(-c3ccc(F)cc3)nn12 yields IC50 at 72 h of > 10 µg/mL

Given item Fc1cccc(-c2cc3nc(-c4ccccc4)cc(NCCCN4CCOCC4)n3n2)c1 , the value recorded as its IC50 at 72 h is > 10 µg/mL

The compound identified as COc1ccc(/C(=N/O)Nc2ccc(F)cc2)cc1 registered its IC50 at 72 h at > 10 µg/mL

---

experiment: DNDI: Cytotoxicity against L929 mouse fibroblasts, 72 hour.; type: toxicity, cell-based; conditions: mouse, L929 mouse fibroblasts
observable: IC50 at 72 h

Answered examples (3):
IC50 at 72 h measured on CCc1ccc(Oc2ncccc2/C(=N\O)NC2CCCC[C@H]2N)cc1 (stereo partly specified) = > 10 µg/mL

In plain terms, C[C@@H](NCc1coc(-c2ccc(Cl)cc2)n1)C1CCCCC1 has a documented IC50 at 72 h of < 3.13 µg/mL

The measured IC50 at 72 h associated with CCc1ccc(Oc2ncccc2/C(=N\O)NC2CCCCC2)cc1 reads > 10 µg/mL

New cases:
Notebook: COc1cc(C)ccc1Oc1ncccc1/C(=N/O)NC1CCCCC1 , IC50 at 72 h read as > 10 µg/mL

Looking up CC1CC(NCc2coc(-c3ccc(-c4ccccc4)cc3)n2)CC(C)(C)C1 (stereo unspecified) , I see its IC50 at 72 h listed as < 3.13 µg/mL

Kindly note the recorded IC50 at 72 h for Cc1ccc(CNC(CCc2ccccc2)c2nc(-c3ccccc3)c(N3CCCCC3)o2)cc1 (stereo unspecified) , which is > 10 µg/mL

---

tested on: Trypanosoma brucei; experiment: DNDI: Inhibition of Human African Trypanosomiasis, Cross 22, in vitro; assay type: functional, organism-based
Recorded measurements of IC50, one per entry

Example cases with answers are listed next.
Considering CC(C)(C)c1ccc(-c2nc(CNC[C@@H]3CC[C@H]4C[C@@H]3C4(C)C)co2)cc1 , its IC50 with Trypanosoma brucei was recorded as > 5 mg/L

CC1CC(NCc2coc(-c3ccc(C(C)(C)C)cc3)n2)CC(C)(C)C1 (stereo not drawn) on Trypanosoma brucei gives IC50 = > 5 mg/L

Lab note: next molecule to report on.
Record for C[C@@H]1[C@H]2C[C@@H](C[C@H]1NCc1coc(-c3ccc(C(C)(C)C)cc3)n1)C2(C)C under target or system Trypanosoma brucei: IC50 reported as > 5 mg/L

---

conditions: mouse, microsomes, 1 µM
Description: DNDI: in vitro intrinsic clearance in mouse liver microsomes at a concentration of 1uM
observable: CLint in vitro (µL/min/mg)
Report the figure in µL/min/mg without appending any unit label.

Kindly note the recorded CLint in vitro for COc1ccc(/C(=N/O)Nc2cccc(F)c2)cc1 , which is 143.33

Record CC(C)Oc1ccc(-c2nc(CN[C@@H]3C[C@@H]4C[C@H]([C@H]3C)C4(C)C)co2)cc1 , field CLint in vitro: 11

compound O/N=C(/NC1CCCCC1)c1cccnc1Oc1ccc(Cl)cc1 , CLint in vitro observed: 367

The reported value for O/N=C(\NC1CCCCC1)c1ccccc1Cc1ccccc1 in terms of CLint in vitro is 381

Briefly, CLint in vitro measured for O/N=C(\NCC1CC1)c1ccccc1-c1ccccc1 : 93

Memo: CCCCCC(C)NCc1coc(-c2ccc(OCCC)cc2)n1 (stereo not drawn) , reported CLint in vitro: 31

Others:
For CCCCCC(C)NCc1coc(-c2ccc(Oc3ccc(C)cc3)cc2)n1 (stereo not drawn) the compound record lists CLint in vitro as 12

---

experiment: DNDI: Cytotoxicity against L929 mouse fibroblasts, 72 hour.; format: toxicity, cell-based; conditions: mouse, L929 mouse fibroblasts
observable: IC50 at 72 h

Reference set (5 entries):
// sample c1ccc(-c2ccc(-c3nc(CNC4CCCCCC4)co3)cc2)cc1 , its IC50 at 72 h was < 3.13 µg/mL

Data point: Cc1ccc(CNC(c2cccc(Cl)c2)c2nc(Cc3ccccc3)c(N3CCOCC3)o2)cc1 (configuration not stated) ; IC50 at 72 h = > 10 µg/mL

Summary for this molecule, COc1ccc(/C(=N/O)Nc2cccc(-c3ccccc3)c2)cc1 : IC50 at 72 h is > 10 µg/mL

Lab note: CCCCCC(C)NCc1nc(-c2cccc(OC)c2)oc1C (configuration not stated) gave IC50 at 72 h of > 10 µg/mL

Measured IC50 at 72 h, CCCCc1ccc(-c2nc(-c3cc(-c4ccccc4)no3)co2)cc1 : > 10 µg/mL

Next:
Reported IC50 at 72 h of CCCCCCC/C(O)=C1/C(=O)CN(C)C1=O : > 10 µg/mL

IC50 at 72 h reading for Cc1ccc(CNC(c2cccc(C#N)c2)c2nc(Cc3ccccc3)c(N3CCOCC3)o2)cc1 (configuration not stated) : > 10 µg/mL

Measured IC50 at 72 h of COc1ccc(/C=N/OCc2c(F)c(F)c(F)c(F)c2F)cc1 : > 10 µg/mL

For reference, reported IC50 at 72 h for CCOCCCNC(c1nc(Cc2ccccc2)c(N2CCOCC2)o1)C1CC1 (configuration not stated) stands at > 10 µg/mL

Field IC50 at 72 h (entry CCCCc1ccc(-c2nc(CN3C(=O)c4ccccc4C3=O)co2)cc1 ) reads > 10 µg/mL

Value of IC50 at 72 h reported for the molecule O/N=C(/NC1CCCCC1)c1cccnc1Oc1ccccc1F is > 10 µg/mL

Reported IC50 at 72 h of Fc1cccc(-c2cc3nc(-c4ccccc4)cc(NCCCn4ccnc4)n3n2)c1 : 5.91 µg/mL

For this molecule ( CCN(CC)CCCNc1cc(C)nc2cc(-c3cccc(F)c3)nn12 ), measured IC50 at 72 h is > 10 µg/mL

The molecule COc1ccc(-c2nc(CNCCCN(C)C)c(C)o2)cc1 showed IC50 at 72 h equal to > 10 µg/mL

Note to self: IC50 at 72 h recorded for CCC(C)C(NCc1ccc(C)cc1)c1nc(-c2ccccc2)c(N2CCCCC2)o1 (configuration not stated) was > 10 µg/mL

molecule CCCCCC(C)NCc1coc(-c2ccccc2)n1 (configuration not stated) , IC50 at 72 h observed: > 10 µg/mL

IC50 at 72 h in this record for CCCCCC(C)NCc1cc(-c2ccccc2)on1 (configuration not stated) : 12.9 µg/mL

---

conditions: mouse, microsomes, 1 µM
observable: log10 CLint in vitro (log10 of the value in µL/min/mg)
Please keep in mind that the values are log10 of CLint in vitro expressed in µL/min/mg.

Quick note, log10 CLint in vitro for COc1ccccc1CNC(c1nc(-c2ccccc2)c(N2CCOCC2)o1)C1CC1 (centres undefined) landed at 2.48

Others:
So for COc1ccc(/C(=N\O)Nc2ccccc2)cc1 , the logged log10 CLint in vitro turned out to be 2.08

Reported log10 CLint in vitro ( COc1ccc(/C(=N/O)Nc2cccc(-c3ccccc3)c2)cc1 ) = 1.82

Please fill in: log10 CLint in vitro reported for CC1CC(NCc2coc(-c3ccc(OC(C)C)cc3)n2)CC(C)(C)C1 (centres undefined) = 1.41

Data point: COc1ccccc1/C(=N/O)NC1CCCCC1 ; log10 CLint in vitro = 1.60

For reference, reported log10 CLint in vitro for CCCCCC(C)NCc1coc(-c2ccc(Oc3ccc(Cl)cc3)cc2)n1 (centres undefined) stands at 0.48

For CC(C)(C)c1ccc(-c2nc(CNC3[C@H]4C[C@@H]5C[C@@H](C[C@H]3C5)C4)co2)cc1 (some centres undefined) the molecule record lists log10 CLint in vitro as 1.15

The reported log10 CLint in vitro of the molecule CCCCCOc1ccc(-c2nc(CNC[C@@H]3CC[C@H]4C[C@@H]3C4(C)C)co2)cc1 was 1.87

The recorded log10 CLint in vitro for O/N=C(\NC1CCCCC1)c1ccccc1-c1ccccc1 is 2.08

Notebook: CCC(C)C(NCc1ccccc1OC)c1nc(-c2ccccc2)c(N2CCOCC2)o1 (centres undefined) , log10 CLint in vitro read as 2.64

For this molecule ( COc1ccccc1CNC(CCc1ccccc1)c1nc(-c2ccccc2)c(N2CCOCC2)o1 (centres undefined) ), measured log10 CLint in vitro is 2.54

Noted for CCCCCC(C)NCc1coc(-c2ccc(C(C)C)cc2)n1 (centres undefined) : its log10 CLint in vitro reads 1.56

log10 CLint in vitro reported for this molecule CC(C)Oc1ccc(-c2nc(CNC[C@@H]3CC[C@H]4C[C@@H]3C4(C)C)co2)cc1 : 1.65

Query O/N=C(\CNC1CCCCC1)c1ccccc1 yields log10 CLint in vitro of 1.74

COc1cc(C)ccc1Oc1ncccc1/C(=N/O)NC1CCCCC1 yielded log10 CLint in vitro of 1.88
